System: Key Broadleaf Weed and Crop Species
test-summary: Post-Emergent Test II: postemergent herbicidal activity, visual rating after 14 d (Table 7)
Format: in vivo
assay-conditions: post-emergence, 336 h, sunflower (Helianthus annuus), 140 g ai/ha, read-out: Visual Growth Reduction (%) 14 Days After Application HELAN
Recorded pest or weed control at 140 g/ha values for a group of molecules are listed next.
measurement-kind: pest or weed control at 140 g/ha

In [3]: df
Out[3]:
                                   compound  reported_measurement
0  C=Cc1c(C(=O)OC)nc(-c2cc3c(cc2F)OCO3)c(F)c1N             85 to 94%
1  Nc1c(Cl)c(C(=O)O)nc(-c2cc3c(cc2F)OC(F)(F)O3)c1Cl             85 to 94%
2  Nc1c(F)c(-c2cc(F)c3c(c2)OC(F)(F)O3)nc(C(=O)O)c1Cl             45 to 59%
3  COC(=O)c1nc(-c2ccc(Cl)c3c2OC(F)(F)O3)c(Cl)c(N)c1Cl            95 to 100%
4  Cc1c(-c2ccc3c(c2)OC(F)(F)O3)nc(C(=O)O)c(Cl)c1N            95 to 100%

###

System: Key Grass and Sedge Weeds as well as Grass Crops
test-summary: Post-Emergent Test II: postemergent herbicidal activity, visual rating after 14 d (Table 8)
Assay type: in vivo
assay-conditions: post-emergence, 336 h, yellow nutsedge (Cyperus esculentus), 140 g ai/ha, read-out: Visual Growth Reduction (%) 14 Days After Application CYPES
measurement-kind: pest or weed control at 140 g/ha

>>> df
                                   compound                  measurement_kind  reported_measurement
0  COC(=O)c1nc(-c2ccc3c(c2)OC(F)(F)O3)c(C)c(N)c1Cl [Compound 49]  pest or weed control at 140 g/ha              0 to 29%
1  COC(=O)c1nc(-c2cc3c(cc2F)OC(F)(F)O3)c(F)c(N)c1F [Compound 21]  pest or weed control at 140 g/ha              0 to 29%
2  COC(=O)c1nc(-c2ccc(I)c3c2OC(F)(F)O3)c(F)c(N)c1Cl [Compound 79]  pest or weed control at 140 g/ha              0 to 29%
3  COC(=O)c1nc(-c2ccc3c(c2)OC(F)(F)O3)nc(N)c1Cl [Compound 60]  pest or weed control at 140 g/ha             85 to 94%
4  Nc1c(Cl)c(C(=O)O)nc(-c2cc3c(cc2F)OC(F)(F)O3)c1Cl [Compound 3]  pest or weed control at 140 g/ha              0 to 29%
5  Nc1nc(-c2cc3c(cc2F)OC(F)(F)O3)nc(C(=O)O)c1Cl [Compound 57]  pest or weed control at 140 g/ha              0 to 29%
6  COC(=O)c1nc(-c2ccc3c(c2)OC(C)(C)O3)c(F)c(N)c1Cl [Compound 8]  pest or weed control at 140 g/ha            95 to 100%
7  Nc1c(F)c(-c2ccc(Br)c3c2OC(F)(F)O3)nc(C(=O)O)c1Cl [Compound 80]  pest or weed control at 140 g/ha              0 to 29%
8  COC(=O)c1nc(-c2cc(OC)c3c(c2)OCO3)c(F)c(N)c1Cl [Compound 14]  pest or weed control at 140 g/ha              0 to 29%

###

// pest or weed control at 140 g/ha lookup, one value per entry
Tested on: Key Broadleaf Weed and Crop Species
test-summary: Post-Emergent Test II: postemergent herbicidal activity, visual rating after 14 d (Table 7)
Assay type: in vivo
assay-conditions: post-emergence, 336 h, AMARE: redroot pigweed (Amaranthus retroflexus), 140 g ai/ha, read-out: Visual Growth Reduction (%) 14 Days After Application AMARE
measurement-kind: pest or weed control at 140 g/ha

                                   molecule  reported_measurement
0  CN1CCc2cc(-c3nc(C(=O)O)c(Cl)c(N)c3F)ccc21 [Compound 108]              0 to 29%
1  COC(=O)c1nc(-c2c(F)ccc3c2OC(F)(F)O3)cc(N)c1Cl [Compound 90]            95 to 100%
2  COC(=O)c1nc(-c2ccc(Cl)c3c2OC(F)(F)O3)cc(N)c1Cl [Compound 86]            95 to 100%
3  Nc1cc(-c2ccc(Cl)c3c2OC(F)(F)O3)nc(C(=O)O)c1Cl [Compound 87]            95 to 100%
4  COC(=O)c1nc(-c2ccc(F)c3c2OC(F)(F)O3)cc(N)c1Cl [Compound 88]            95 to 100%

###

Tested on: Key Broadleaf Weed and Crop Species
test-summary: Post-Emergent Test II: postemergent herbicidal activity, visual rating after 14 d (Table 7)
Assay type: in vivo
assay-conditions: post-emergence, 336 h, velvetleaf (Abutilon theophrasti), 140 g ai/ha, read-out: Visual Growth Reduction (%) 14 Days After Application ABUTH
measurement-kind: pest or weed control at 140 g/ha

>>> print(df.to_string())
                                    compound                  measurement_kind  reported_measurement
 0  COC(=O)c1nc(-c2c(F)cc3c(c2F)OC(F)(F)O3)cc(N)c1Cl [Compound 46]  pest or weed control at 140 g/ha            95 to 100%
 1  COC(=O)c1nc(-c2c(F)cc3c(c2F)OCO3)cc(N)c1Cl [Compound 48]  pest or weed control at 140 g/ha            95 to 100%
 2  COC(=O)c1nc(-c2cc3c(cc2F)OC(F)(F)O3)nc(N)c1Cl [Compound 56]  pest or weed control at 140 g/ha              0 to 29%
 3  C=Cc1c(C(=O)O)nc(-c2ccc3c(c2)OC(F)(F)O3)c(F)c1N [Compound 30]  pest or weed control at 140 g/ha             75 to 84%
 4  COC(=O)c1nc(-c2ccc(I)c3c2OC(F)(F)O3)c(F)c(N)c1Cl [Compound 79]  pest or weed control at 140 g/ha             75 to 84%
 5  Nc1nc(-c2ccc3c(c2)OC(F)(F)O3)nc(C(=O)O)c1Cl [Compound 61]  pest or weed control at 140 g/ha             60 to 74%
 6  COC(=O)c1nc(-c2cc3c(cc2OC)OC(F)(F)O3)cc(N)c1Cl [Compound 38]  pest or weed control at 140 g/ha              0 to 29%
 7  Nc1c(F)c(-c2cc(F)c3c(c2)OC(F)(F)O3)nc(C(=O)O)c1Cl [Compound 18]  pest or weed control at 140 g/ha              0 to 29%
 8  COC(=O)c1nc(-c2ccc3c(c2C)OC(F)(F)O3)cc(N)c1Cl [Compound 35]  pest or weed control at 140 g/ha             75 to 84%
 9  COC(=O)c1nc(-c2ccc3c(c2F)OC(F)(F)O3)c(Cl)c(N)c1Cl [Compound 4]  pest or weed control at 140 g/ha              0 to 29%
10  COc1c(N)nc(-c2cc3c(cc2F)OC(F)(F)O3)nc1C(=O)O [Compound 68]  pest or weed control at 140 g/ha              0 to 29%
11  Nc1c(F)c(-c2ccc3c(c2F)OC(F)(F)O3)nc(C(=O)O)c1Cl [Compound 11]  pest or weed control at 140 g/ha            95 to 100%
12  COC(=O)c1nc(-c2cc3c(cc2F)OC(F)(F)O3)c(F)c(N)c1Cl [Compound 9]  pest or weed control at 140 g/ha            95 to 100%
13  COC(=O)c1nc(-c2cc3c(cc2F)OCO3)nc(N)c1OC [Compound 69]  pest or weed control at 140 g/ha              0 to 29%
14  COC(=O)c1nc(-c2ccc(Cl)c3c2OC(F)(F)O3)c(Cl)c(N)c1Cl [Compound 70]  pest or weed control at 140 g/ha             75 to 84%
15  Nc1cc(-c2cc(F)c3c(c2)OC(F)(F)O3)nc(C(=O)O)c1Cl [Compound 44]  pest or weed control at 140 g/ha              0 to 29%
16  COC(=O)c1nc(-c2cc3c(cc2F)OC(F)(F)O3)nc(N)c1OC [Compound 64]  pest or weed control at 140 g/ha              0 to 29%
17  COC(=O)c1nc(-c2cc3c(cc2F)OC(F)(F)O3)cc(N)c1Cl [Compound 32]  pest or weed control at 140 g/ha             85 to 94%
